All figures here come from patent US6596772B1.

Provide the reported pIC50 of each item.
- system.tested: PTP MU (Homo sapiens, UniProt P28827)
- Construct: made in house; host or cells: E. coli BL-21 (pGEX 6P-1)
- Sequence (P28827 831-1186 limits assumed): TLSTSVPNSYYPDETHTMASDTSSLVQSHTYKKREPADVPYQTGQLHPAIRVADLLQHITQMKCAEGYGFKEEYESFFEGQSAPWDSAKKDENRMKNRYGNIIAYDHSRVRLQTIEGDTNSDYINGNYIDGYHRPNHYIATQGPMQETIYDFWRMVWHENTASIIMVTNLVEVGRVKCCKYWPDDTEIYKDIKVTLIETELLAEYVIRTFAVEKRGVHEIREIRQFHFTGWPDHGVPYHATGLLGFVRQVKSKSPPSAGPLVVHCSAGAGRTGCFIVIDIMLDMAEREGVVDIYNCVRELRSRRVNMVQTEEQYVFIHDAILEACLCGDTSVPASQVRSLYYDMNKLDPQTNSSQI
- measurement.protocol: PTP IC50 assay, pNPP or FDP as substrate
- Format: biochemical
- study.conditions: pNPP or FDP as substrate, 25° C.; read-out: PTP IC50 Mu
- Description: The following in vitro assay procedure is preferred to determine the level of activity and effect of the different compounds of the present invention on one or more of the PTPs. […] The catalytic assays described herein are performed in a 96-well format. […] Next, the Michaelis-Menten constant, or Km, is determined for each specific substrate-PTP system. […] All assays were performed using pNPP or FDP as substrate. The optimum pH was determined for each PTP used. […]
One number for each entry, as −log10 of the molar value.

[[record]]
molecule = "Cc1cc(NS(=O)(=O)C(F)(F)F)ccc1CCc1ccc(NS(=O)(=O)C(F)(F)F)cc1C [Example 67]"
readout_kind = "pIC50"
recorded_value = 4.38


Could you tell me pIC50 for each of these molecules? They are listed below.
1. O=S(=O)(Nc1ccc(Oc2cccc(Oc3ccc(NS(=O)(=O)C(F)(F)F)cc3)c2)cc1)C(F)(F)F [Example 74]
2. O=S(=O)(Nc1ccc(CCc2ccc(NS(=O)(=O)C(F)(F)F)cc2)cc1)C(F)(F)F [Example 66]
3. COC(=O)c1c(Oc2ccc(S(=O)(=O)C(F)(F)F)cc2[N+](=O)[O-])cc(C)cc1Oc1ccc(S(=O)(=O)C(F)(F)F)cc1[N+](=O)[O-] [Example 13]

1: 5.41; 2: 4.15; 3: 4.12

I'm hoping you can list pIC50 for every molecule here, please.
1. O=S(=O)(Nc1ccc(Oc2ccc(NS(=O)(=O)C(F)(F)F)cc2)cc1)C(F)(F)F [Example 73]
2. O=C(Cc1ccccc1CC(=O)Nc1cccc(S(=O)(=O)C(F)(F)F)c1)Nc1cccc(S(=O)(=O)C(F)(F)F)c1 [Example 20]

4.12
4.42

Requested field: pIC50. Item: O=C(O)c1ccc(Oc2cccc(Oc3ccc(S(=O)(=O)C(F)(F)F)cc3)c2)cc1 [Example 18]
4.67

----------
- system.tested: PTP SHP2 (Homo sapiens)
- Construct: The catalytic domain was amplified using the following oligonucleotides; made in house; host or cells: Sf-9 insect cells (pFastBac-G2T)
- Sequence (Q06124 247-517 limits assumed): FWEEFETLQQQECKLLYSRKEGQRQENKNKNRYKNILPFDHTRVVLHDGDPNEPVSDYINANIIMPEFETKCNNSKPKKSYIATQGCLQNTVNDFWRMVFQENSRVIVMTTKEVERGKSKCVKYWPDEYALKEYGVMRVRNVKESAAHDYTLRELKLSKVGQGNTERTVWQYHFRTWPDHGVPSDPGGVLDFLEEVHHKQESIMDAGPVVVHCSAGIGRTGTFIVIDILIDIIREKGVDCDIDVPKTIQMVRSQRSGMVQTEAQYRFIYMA
- measurement.protocol: PTP IC50 assay, fluorescent substrate DiFMUP
- Type: biochemical
readout.kind: IC50 (nM)
Answers are plain numbers, in nM.

[[record]]
compound = "O=[N+]([O-])c1cc(S(=O)(=O)C(F)(F)F)ccc1Oc1ccc(S(=O)(=O)c2ccc(Oc3ccc(S(=O)(=O)C(F)(F)F)cc3[N+](=O)[O-])cc2)cc1"
system_tested = "PTP SHP2 (Homo sapiens)"
recorded_value = 400


Lab note: next compound to report on.
Look up IC50 with PTP SHP2 (Homo sapiens) for this compound: O=[N+]([O-])c1ccc(NCC(COc2ccc(S(=O)(=O)C(F)(F)F)cc2[N+](=O)[O-])Oc2ccc(S(=O)(=O)C(F)(F)F)cc2[N+](=O)[O-])cc1 (centres unmarked)
200

----------
I'd appreciate it if you could supply pIC50 values for the items below.
- system.tested: PTP DEP1 (Homo sapiens)
- Construct: GST-fusion proteins encompassing the entire cytoplasmic domain was done by PCR
- Sequence (Q12913 997-1337 limits assumed): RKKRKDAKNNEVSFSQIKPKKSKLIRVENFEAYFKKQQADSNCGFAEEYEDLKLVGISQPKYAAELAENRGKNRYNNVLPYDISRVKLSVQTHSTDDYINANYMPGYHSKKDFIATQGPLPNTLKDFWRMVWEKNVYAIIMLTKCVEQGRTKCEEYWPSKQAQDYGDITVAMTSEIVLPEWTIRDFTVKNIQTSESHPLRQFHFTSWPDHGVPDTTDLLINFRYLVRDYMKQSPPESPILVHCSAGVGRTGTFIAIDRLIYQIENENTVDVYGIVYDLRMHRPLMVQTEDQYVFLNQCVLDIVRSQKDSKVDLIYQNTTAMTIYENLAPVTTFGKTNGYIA
- measurement.protocol: PTP IC50 assay, pNPP or FDP as substrate
- study.conditions: 25° C.
Give bare numbers, as −log10 of the molar value.

[[record]]
compound = "O=S(=O)(c1ccc(COc2ccc(S(=O)(=O)C(F)(F)F)cc2)cc1)C(F)(F)F [Example 2]"
recorded_value = 4.78

[[record]]
compound = "O=C(c1ccccc1)N(Cc1ccc(S(=O)(=O)C(F)(F)F)cc1)Cc1ccc(S(=O)(=O)C(F)(F)F)cc1 [Example 3]"
recorded_value = 4.39

[[record]]
compound = "O=S(=O)(Nc1ccc(Oc2ccc(Oc3ccc(NS(=O)(=O)C(F)(F)F)cc3)cc2)cc1)C(F)(F)F [Example 71]"
recorded_value = 4.31

[[record]]
compound = "Cc1cc(NS(=O)(=O)C(F)(F)F)ccc1CCc1ccc(NS(=O)(=O)C(F)(F)F)cc1C [Example 67]"
recorded_value = 4.07

[[record]]
compound = "O=S(=O)(c1ccc(SSc2ccc(S(=O)(=O)C(F)(F)F)cc2)cc1)C(F)(F)F [Example 7]"
recorded_value = 4.39

[[record]]
compound = "O=S(=O)(c1ccc(CCc2ccc(S(=O)(=O)C(F)(F)F)cc2)cc1)C(F)(F)F [Example 4]"
recorded_value = 4.58


Consider the additional compound presented here.
What reported pIC50 corresponds to O=S(=O)(Nc1ccc(OCCCCOc2ccc(NS(=O)(=O)C(F)(F)F)cc2)cc1)C(F)(F)F [Example 70] on PTP DEP1 (Homo sapiens)?
4.61

----------
- system.tested: PTP 1B (Homo sapiens, UniProt P18031)
- Construct: made in house; host or cells: Sf-9 insect cells (pFastBac-G2T)
- Sequence (P18031 whole entry): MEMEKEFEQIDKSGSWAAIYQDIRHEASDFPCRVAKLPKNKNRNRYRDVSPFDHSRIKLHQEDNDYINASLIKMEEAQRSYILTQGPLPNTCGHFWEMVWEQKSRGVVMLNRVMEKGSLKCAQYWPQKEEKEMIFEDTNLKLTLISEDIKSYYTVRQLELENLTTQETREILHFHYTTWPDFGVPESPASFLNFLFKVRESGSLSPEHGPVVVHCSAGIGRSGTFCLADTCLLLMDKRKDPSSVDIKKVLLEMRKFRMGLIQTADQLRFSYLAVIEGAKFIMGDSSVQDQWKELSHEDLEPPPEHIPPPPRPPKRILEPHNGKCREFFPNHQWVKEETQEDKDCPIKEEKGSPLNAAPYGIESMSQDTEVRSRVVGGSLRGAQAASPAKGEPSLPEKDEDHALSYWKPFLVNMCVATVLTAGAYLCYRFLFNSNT
- measurement.protocol: PTP IC50 assay, fluorescent substrate DiFMUP
- Type: biochemical
- study.conditions: DiFMUP as substrate, 25° C.; read-out: PTP IC50 1B
Assignment: determine reported IC50 for the given molecules.

// for each molecule in input: emit IC50
1. Cn1c(C(=O)O)cc2cc(NS(=O)(=O)C(F)(F)F)ccc21
2. Cc1cc2cc(NS(=O)(=O)C(F)(F)F)ccc2n1CC(=O)Nc1cccc(C(=O)O)c1
3. O=C(O)c1ccc2cc(CN(Cc3ccc4cc(C(=O)O)ccc4c3)S(=O)(=O)C(F)(F)F)ccc2c1
4. CCn1c(-c2ccc(C(=O)Nc3ccc(OC)cc3)cc2)nc2cc(S(=O)(=O)C(F)(F)F)ccc21
5. CN(Cc1ccc2cc(C(=O)O)ccc2c1)S(=O)(=O)C(F)(F)F
6. CCn1c(-c2ccc(C(=O)NCCN3CCCC3)cc2)nc2cc(S(=O)(=O)C(F)(F)F)ccc21

1. > 100 µM
2. > 20 µM
3. > 20 µM
4. 1.1 µM
5. > 20 µM
6. > 20 µM

For every listed record, write down its IC50.
1. CCCCNC(=O)C(c1ccc(S(=O)(=O)C(F)(F)F)cc1)N(Cc1ccccc1)C(=O)c1ccccc1 (centres unmarked)
2. O=C(Nc1ccccc1)c1cc2cc(NS(=O)(=O)C(F)(F)F)ccc2[nH]1

["15.8 µM", "14.6 µM"]

----------
- system.tested: PTP 1B (Homo sapiens, UniProt P18031)
- Construct: made in house; host or cells: Sf-9 insect cells (pFastBac-G2T)
- measurement.protocol: PTP IC50 assay, fluorescent substrate DiFMUP
- Assay type: biochemical
- study.conditions: DiFMUP as substrate, 25° C.; read-out: PTP IC50 1B
I'd be grateful if you could share measured IC50 for these entries.
One number for each entry, in µM.

Examples from the recorded data:
[[record]]
compound = "O=C(Cc1cccc(CC(=O)Nc2ccc(S(=O)(=O)C(F)(F)F)cc2)c1)Nc1ccc(S(=O)(=O)C(F)(F)F)cc1"
system_tested = "PTP 1B (Homo sapiens, UniProt P18031)"
readout_kind = "IC50"
units_label = "µM"
recorded_value = 2.3

[[record]]
compound = "O=C(O)c1cc2cc(NS(=O)(=O)C(F)(F)F)ccc2n1Cc1ccccc1"
system_tested = "PTP 1B (Homo sapiens, UniProt P18031)"
readout_kind = "IC50"
units_label = "µM"
recorded_value = 43.1

[[record]]
compound = "Cc1cccc(C)c1NC(=O)C(c1ccc(S(=O)(=O)C(F)(F)F)cc1)N(C(=O)c1ccccc1)C1CCCCC1 (centres unmarked)"
system_tested = "PTP 1B (Homo sapiens, UniProt P18031)"
readout_kind = "IC50"
units_label = "µM"
recorded_value = 8.3


For every record below, what is its IC50?
1. O=[N+]([O-])c1ccc(NCC(O)COc2ccc(S(=O)(=O)C(F)(F)F)cc2[N+](=O)[O-])cc1 (centres unmarked)
2. CCOC(=O)c1cc2cc(NS(=O)(=O)C(F)(F)F)ccc2n1CC(=O)OC(C)(C)C
3. O=C(O)c1ccc(OCCOc2ccc(S(=O)(=O)C(F)(F)F)cc2[N+](=O)[O-])cc1
4. CC(C)(C)OC(=O)Cn1c(C(=O)O)cc2cc(NS(=O)(=O)C(F)(F)F)ccc21
5. CCOC(=O)c1cc2cc(N(S(=O)(=O)C(F)(F)F)S(=O)(=O)C(F)(F)F)ccc2n1CC(=O)OC(C)(C)C

1. 16.2
2. 12
3. 1.5
4. 34.7
5. 4.8
